System: UO-31 renal
Test Description: NCI tumour cell line growth inhibition, 48 h
Assay Metric: TGI

{"columns": ["Compound", "Target", "Observed Measurement"],
 "data": [
  ["COc1ccc2c(c1OC)OCC(CN(C)C)C2=O (configuration not stated)", "UO-31 renal", "32.5 µM"],
  ["Cl/C(=C\\C=Nc1ccc(I)cc1)c1ccc2ccccc2c1", "UO-31 renal", "> 55.9 µM"],
  ["CCc1ccc2c(c1)N(CCO)C1=C(C(=O)OC1)C2c1cccc(Cl)c1 (configuration not stated)", "UO-31 renal", "20.9 µM"],
  ["O=C(CCC(C(=O)c1ccccc1)c1ccccc1)c1ccccc1 (configuration not stated)", "UO-31 renal", "> 100 µM"],
  ["O=C(COc1ccc(Cl)c(Cl)c1)N(Cc1ccccc1)Cc1ccc[n+](Cc2ccc(Cl)cc2S(=O)(=O)F)c1", "UO-31 renal", "> 100 µM"],
  ["CC1=C[P+](Cc2ccccc2)(c2ccccc2)CC1 (configuration not stated)", "UO-31 renal", "> 100 µM"],
  ["CCCCN(CCCC)CCCn1c(=O)c2c3ccccc3n(C)c2n2nnc(-c3ccccc3)c12", "UO-31 renal", "46.8 µM"],
  ["O=C1C(=Cc2cccc(O)c2)N=C(c2ccccc2)N1n1c(-c2ccccc2)nc2ccccc2c1=O", "UO-31 renal", "61.1 µM"],
  ["CN(C)/C=N/NC(=O)/C(C#N)=C/N(C)C", "UO-31 renal", "> 100 µM"],
  ["COC(=O)CSC(=S)Nc1nnc(NC(=S)SCOC(C)=O)n1C(=S)SCC(=O)OC", "UO-31 renal", "> 100 µM"],
  ["C[Si](C)(OCCS(=O)(=O)O)OC(=C1S(=O)(=O)OCCOS1(=O)=O)c1cccc2ccccc12", "UO-31 renal", "> 100 µM"],
  ["COc1cc(N(Cc2ccc3nc(OC)c(OC)nc3c2)Cc2ccc3nc(OC)c(OC)nc3c2)cc(OC)c1OC", "UO-31 renal", "> 50 µM"],
  ["C=C1C(=O)OC2CC1CCC1(C)OC1CCC(C)=CCCC2(C)O (configuration not stated)", "UO-31 renal", "18.7 µM"],
  ["O=C(/C(=C/c1ccc([N+](=O)[O-])cc1)SCc1ccc(F)cc1)c1ccc(Cl)cc1", "UO-31 renal", "17.8 µM"],
  ["Cc1nc(C(N)=S)sc1C(=O)CC(=O)C(=O)Nc1nc2ccccc2[nH]1", "UO-31 renal", "> 100 µM"],
  ["CC(C)(C)c1ccc(/C=N/NC(=O)CSCC(=O)N/N=C/c2ccc(C(C)(C)C)cc2)cc1", "UO-31 renal", "15.7 µM"],
  ["Cc1nn(C)cc1P(=S)(c1ccccc1)c1ccccc1", "UO-31 renal", "> 100 µM"],
  ["O=C(Oc1ccc(Cl)cc1[N+](=O)[O-])c1ccccc1", "UO-31 renal", "> 100 µM"],
  ["COc1cccc2c1c(C1=C(c3cn(C)c4ccccc34)C(=O)NC1=O)cn2C", "UO-31 renal", "> 25 µM"],
  ["SC1CCCN(Cc2ccccc2)C1 (configuration not stated)", "UO-31 renal", "> 100 µM"],
  ["Cc1ccc2c(=O)cc(-c3ccsc3)[nH]c2n1", "UO-31 renal", "9.47 µM"],
  ["O=C1c2ccccc2-c2c1c1c(O)cccc1n2-c1ccccc1", "UO-31 renal", "> 100 µM"],
  ["Fc1cccc2c1cc1ccc3cccc4ccc2c1c34", "UO-31 renal", "> 100 µM"],
  ["CN1CC(CNC(=O)OCc2ccccc2)CC2c3cccc4c3c(cn4C)CC21 (configuration not stated)", "UO-31 renal", "4.22 µM"],
  ["CNC(=O)CN(C)C(=O)CCC(=O)N(C)C", "UO-31 renal", "> 100 µM"],
  ["Cc1ccc(-c2nc(-c3cnccn3)n(C3OC(CO)C(O)C(O)C3O)n2)cc1 (configuration not stated)", "UO-31 renal", "> 100 µM"],
  ["CN1Cc2cc3c(cc2-c2ccccc21)OCO3", "UO-31 renal", "> 100 µM"],
  ["C/C(=C\\COc1c2c(cc3c1CCO3)OC1(C=C2)OC(CC/C(C)=C/COc2c3ccoc3cc3oc(=O)ccc23)C(C)(C)O1)CCC(O)C(C)(C)O (configuration not stated)", "UO-31 renal", "> 100 µM"],
  ["COc1ccc(OC)c(CC(C)N)c1 (configuration not stated)", "UO-31 renal", "> 100 µM"],
  ["Cc1ccc(NC2=N/C(=C/c3ccccc3)C(Cl)=N2)cc1", "UO-31 renal", "> 100 µM"],
  ["O=C1OC2CC=CC1C2 (configuration not stated)", "UO-31 renal", "> 100 µM"],
  ["NCCN1C(=O)C2C3c4ccccc4C(c4ccccc43)C2C1=O (configuration not stated)", "UO-31 renal", "> 100 µM"],
  ["CCCCCCCCCCCCOC1C(C(CC(=O)N2CCN(c3cccc(C(F)(F)F)c3)CC2)NS(=O)(=O)c2cc(Cl)cc(Cl)c2)OC2OC(C)(C)OC21 (configuration not stated)", "UO-31 renal", "> 100 µM"],
  ["CCCCCCc1nc2nc(Cl)c(Cl)nc2[nH]1", "UO-31 renal", "> 100 µM"],
  ["CC[C@]12C=CCN3CC[C@@]4(c5cc(Br)c(OC)cc5N(C)[C@H]4[C@@](O)(C(=O)N[C@@H](Cc4ccc(O)cc4)C(=O)OC)[C@@H]1O)[C@@H]32", "UO-31 renal", "98.6 µM"],
  ["CC(C)N1CN(C(C(=O)N[C@@H]2C(=O)N3C2SC(C)(C)C3C(=O)O)c2ccc(O)cc2)CSC1=S (some centres not stated)", "UO-31 renal", "> 100 µM"],
  ["CC(C)(C)OC(=O)NC1CCC(C(C)(C)C)CC1 (configuration not stated)", "UO-31 renal", "> 100 µM"],
  ["COc1ccc(NC(=S)N/N=C(\\C)c2nc3ncccc3[nH]2)cc1", "UO-31 renal", "12 µM"],
  ["COc1cc(-c2nn(-c3cccc(NC(=O)c4ccc(N5CCOCC5)c(C(F)(F)F)c4)c3)cc2-c2ccncc2)ccc1Cl", "UO-31 renal", "8.77 µM"],
  ["O=C(/C=C/c1ccccc1)N1CCCCC1", "UO-31 renal", "> 100 µM"],
  ["COC(=O)Nc1nc2ccc(NC(=O)c3cccs3)cc2[nH]1", "UO-31 renal", "36.2 µM"],
  ["COc1ccc2nc3ccccc3c(NCCCN(C)CCCl)c2c1", "UO-31 renal", "2.67 µM"]
]}

These data points were gathered from PubChem BioAssay (NCI).
